Tested on: 171881-019-R-J1-PDC tumor spheroid viability
Assay: Anticancer human tumor 171881-019-R-J1-PDC patient-derived invasive breast carcinoma cell line growth inhibition [PI3K]
Conditions: second compound 0.1 µM; first compound 0.316 µM; stronger effect = lower value; spheroids with HUVEC and MSC
Text: Combinatorial screen of targeted agents with the PI3K inhibitors inavolisib, alpelisib, duvelisib, and copanlisib in multi-cell type tumor spheroids A high-throughput screen of multi-cell type tumor spheroids was designed to identify active combinations of targeted small molecules and PI3K pathway inhibitors. […] Compounds. […] If the clinical Cmax for an agent had not been determined, the highest concentration tested was 10 microM. […]
Endpoint: viability, T/C (%)
Kindly answer with a numeric value in %, unit omitted.

Solved cases below.
{"Compound": "C=CC(=O)N1CCN(c2nc(=O)n(-c3c(C)ccnc3C(C)C)c3nc(-c4c(O)cccc4F)c(F)cc23)C(C)C1 (stereo not given) + CC(Nc1ncnc2nc[nH]c12)c1cc2cccc(Cl)c2c(=O)n1-c1ccccc1", "Measured result": 87.2}
{"Compound": "CNC(=O)c1ccc(N2C(=S)N(c3ccc(C#N)c(C(F)(F)F)c3)C(=O)C2(C)C)cc1F + Cc1nc(NC(=O)N2CCCC2C(N)=O)sc1-c1ccnc(C(C)(C)C(F)(F)F)c1", "Measured result": 82.9}
{"Compound": "CC1(C)CCC(Nc2ncc(C(F)(F)F)c(-c3c[nH]c4c(P(C)(C)=O)c(C#N)ccc34)n2)CN1 (stereo not given) + CC(Nc1ncnc2nc[nH]c12)c1cc2cccc(Cl)c2c(=O)n1-c1ccccc1", "Measured result": 73.1}
{"Compound": "CNC(=O)c1ccc(N2C(=S)N(c3ccc(C#N)c(C(F)(F)F)c3)C(=O)C2(C)C)cc1F + COc1c(OCCCN2CCOCC2)ccc2c3n(c(=NC(=O)c4cnc(N)nc4)nc12)CCN3", "Measured result": 7.75}
{"Compound": "C=CC(=O)N1CCN(c2nc(=O)n(-c3c(C)ccnc3C(C)C)c3nc(-c4c(O)cccc4F)c(F)cc23)C(C)C1 (stereo not given) + CC(Nc1ccc2c(c1)OCCn1cc(N3C(=O)OCC3C(F)F)nc1-2)C(N)=O", "Measured result": 40.2}
{"Compound": "CCCS(=O)(=O)Nc1ccc(F)c(C(=O)c2c[nH]c3ncc(-c4ccc(Cl)cc4)cc23)c1F + CC(Nc1ncnc2nc[nH]c12)c1cc2cccc(Cl)c2c(=O)n1-c1ccccc1", "Measured result": 95}
{"Compound": "C[C@@H](NC(=O)c1ncnc(N)c1Cl)c1ncc(C(=O)Nc2cc(C(F)(F)F)c(Cl)cn2)s1 + CC(Nc1ccc2c(c1)OCCn1cc(N3C(=O)OCC3C(F)F)nc1-2)C(N)=O", "Measured result": 33.8}
{"Compound": "C#Cc1c(F)ccc2cc(O)cc(-c3ncc4c(N5CC6CCC(C5)N6)nc(OCC56CCCN5CC(F)C6)nc4c3F)c12 (stereo not given) + COc1c(OCCCN2CCOCC2)ccc2c3n(c(=NC(=O)c4cnc(N)nc4)nc12)CCN3", "Measured result": 3.8}
{"Compound": "CC1(C)CCC(CN2CCN(c3ccc(C(=O)NS(=O)(=O)c4ccc(NCC5CCOCC5)c([N+](=O)[O-])c4)c(Oc4cnc5[nH]ccc5c4)c3)CC2)=C(c2ccc(Cl)cc2)C1 + COc1c(OCCCN2CCOCC2)ccc2c3n(c(=NC(=O)c4cnc(N)nc4)nc12)CCN3", "Measured result": 8.91}

Switching to the query record.
Req: Query viability, T/C on 171881-019-R-J1-PDC tumor spheroid viability for CC(Cn1ccc(-c2ccc(C#N)c(Cl)c2)n1)NC(=O)c1cc(C(C)O)[nH]n1 (stereo not given) + CC(Nc1ncnc2nc[nH]c12)c1cc2cccc(Cl)c2c(=O)n1-c1ccccc1
Resp: 87.8

----------
In this section, each of the molecules is paired with its reported pIC50.
Tested on: 171881-019-R-J1-PDC tumor spheroid viability
Test: Anticancer human tumor 171881-019-R-J1-PDC cell line growth inhibition [PI3K];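 also: spheroids exposed to compound for 7 days before viability read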
Conditions: curve of first compound; second compound 3.16 µM; spheroids with HUVEC and MSC
pIC50: −log10 of the molar value.

Solved cases below.
{"Molecule": "Cn1cnc2c(F)c(Nc3ccc(Br)cc3Cl)c(C(=O)NOCCO)cc21 + CC(Nc1ncnc2nc[nH]c12)c1cc2cccc(Cl)c2c(=O)n1-c1ccccc1", "Endpoint": "pIC50", "Measured result": 6.84}
{"Molecule": "CC(C)NCC(C(=O)N1CCN(c2ncnc3c2C(C)CC3O)CC1)c1ccc(Cl)cc1 (stereo unspecified) + CC(Nc1ncnc2nc[nH]c12)c1cc2cccc(Cl)c2c(=O)n1-c1ccccc1", "Endpoint": "pIC50", "Measured result": 6.45}

Req: May I ask what pIC50 has been recorded for Cn1nccc1Nc1nccc(-c2ccn(C(CO)c3ccc(Cl)c(F)c3)c(=O)c2)n1 (stereo unspecified) + Cc1nc(NC(=O)N2CCCC2C(N)=O)sc1-c1ccnc(C(C)(C)C(F)(F)F)c1 ?
Resp: > 7.50

Req: May I ask what pIC50 has been recorded for CC(Cn1ccc(-c2ccc(C#N)c(Cl)c2)n1)NC(=O)c1cc(C(C)O)[nH]n1 (stereo unspecified) + CC(Nc1ncnc2nc[nH]c12)c1cc2cccc(Cl)c2c(=O)n1-c1ccccc1 ?
Resp: < 5.00

Req: May I ask what pIC50 has been recorded for CC(C)n1nc(-c2ccc3oc(N)nc3c2)c2c(N)ncnc21 + Cc1nc(NC(=O)N2CCCC2C(N)=O)sc1-c1ccnc(C(C)(C)C(F)(F)F)c1 ?
Resp: > 9.50

Req: May I ask what pIC50 has been recorded for CCN1CCN(Cc2ccc(Nc3ncc(F)c(-c4cc(F)c5nc(C)n(C(C)C)c5c4)n3)nc2)CC1 + CC(Nc1ncnc2nc[nH]c12)c1cc2cccc(Cl)c2c(=O)n1-c1ccccc1 ?
Resp: < 6.00

----------
Tested on: 171881-019-R-J1-PDC tumor spheroid viability
Assay: Anticancer human tumor 171881-019-R-J1-PDC cell line growth inhibition [PI3K];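 also: spheroids exposed to compound for 7 days before viability read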;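 as to viability, T/C: 100% = DMSO vehicle-treated spheroids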
Details: second compound 0.01 µM; first compound 0.01 µM; stronger effect = lower value; spheroids with HUVEC and MSC
Endpoint: viability, T/C (%)
Kindly answer with a numeric value in %, unit omitted.

Solved cases below.
{"Compound": "Cn1ncnc1[C@H]1c2n[nH]c(=O)c3cc(F)cc(c23)N[C@@H]1c1ccc(F)cc1 + COc1c(OCCCN2CCOCC2)ccc2c3n(c(=NC(=O)c4cnc(N)nc4)nc12)CCN3", "viability, T/C (%)": 49.6}
{"Compound": "CC(=O)c1c(C)c2cnc(Nc3ccc(N4CCNCC4)cn3)nc2n(C2CCCC2)c1=O + CC(Nc1ccc2c(c1)OCCn1cc(N3C(=O)OCC3C(F)F)nc1-2)C(N)=O", "viability, T/C (%)": 85.9}
{"Compound": "CCN1CCN(Cc2ccc(Nc3ncc(F)c(-c4cc(F)c5nc(C)n(C(C)C)c5c4)n3)nc2)CC1 + COc1c(OCCCN2CCOCC2)ccc2c3n(c(=NC(=O)c4cnc(N)nc4)nc12)CCN3", "viability, T/C (%)": 56.9}
{"Compound": "CC(=O)c1c(C)c2cnc(Nc3ccc(N4CCNCC4)cn3)nc2n(C2CCCC2)c1=O + COc1c(OCCCN2CCOCC2)ccc2c3n(c(=NC(=O)c4cnc(N)nc4)nc12)CCN3", "viability, T/C (%)": 55.1}
{"Compound": "Cn1ncnc1[C@H]1c2n[nH]c(=O)c3cc(F)cc(c23)N[C@@H]1c1ccc(F)cc1 + CC(Nc1ccc2c(c1)OCCn1cc(N3C(=O)OCC3C(F)F)nc1-2)C(N)=O", "viability, T/C (%)": 65.5}
{"Compound": "CCN1CCN(Cc2ccc(Nc3ncc(F)c(-c4cc(F)c5nc(C)n(C(C)C)c5c4)n3)nc2)CC1 + CC(Nc1ccc2c(c1)OCCn1cc(N3C(=O)OCC3C(F)F)nc1-2)C(N)=O", "viability, T/C (%)": 77.5}
{"Compound": "CC(C)n1nc(-c2ccc3oc(N)nc3c2)c2c(N)ncnc21 + COc1c(OCCCN2CCOCC2)ccc2c3n(c(=NC(=O)c4cnc(N)nc4)nc12)CCN3", "viability, T/C (%)": 19.3}

Switching to the query record.
Req: May I ask what viability, T/C has been recorded for CC(C)n1nc(-c2ccc3oc(N)nc3c2)c2c(N)ncnc21 + CC(Nc1ccc2c(c1)OCCn1cc(N3C(=O)OCC3C(F)F)nc1-2)C(N)=O ?
Resp: 38.5

----------
Tested on: 171881-019-R-J1-PDC tumor spheroid viability
Assay: Anticancer human tumor 171881-019-R-J1-PDC cell line growth inhibition [PI3K]; active = viability on the fitted dose curve at most 10% of control; inactive = the rest;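 also: spheroids exposed to compound for 7 days before viability read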
Details: second compound 0.1 µM; first compound 0.316 µM; spheroids with HUVEC and MSC
Lab note: assign the record to one of 1 (yes) (active), 0 (no) (inactive)

{"Compound": "CC(C)NCC(C(=O)N1CCN(c2ncnc3c2C(C)CC3O)CC1)c1ccc(Cl)cc1 (stereo unspecified) + Cc1nc(NC(=O)N2CCCC2C(N)=O)sc1-c1ccnc(C(C)(C)C(F)(F)F)c1", "Assay target": "171881-019-R-J1-PDC tumor spheroid viability", "Class label": "0 (no)"}
{"Compound": "C=CC(=O)N1CCN(c2nc(=O)n(-c3c(C)ccnc3C(C)C)c3nc(-c4c(O)cccc4F)c(F)cc23)C(C)C1 (stereo unspecified) + Cc1nc(NC(=O)N2CCCC2C(N)=O)sc1-c1ccnc(C(C)(C)C(F)(F)F)c1", "Assay target": "171881-019-R-J1-PDC tumor spheroid viability", "Class label": "0 (no)"}
{"Compound": "CC1(C)CCC(CN2CCN(c3ccc(C(=O)NS(=O)(=O)c4ccc(NCC5CCOCC5)c([N+](=O)[O-])c4)c(Oc4cnc5[nH]ccc5c4)c3)CC2)=C(c2ccc(Cl)cc2)C1 + CC(Nc1ncnc2nc[nH]c12)c1cc2cccc(Cl)c2c(=O)n1-c1ccccc1", "Assay target": "171881-019-R-J1-PDC tumor spheroid viability", "Class label": "0 (no)"}

Req: Test call for this compound, please: Cn1nccc1Nc1nccc(-c2ccn(C(CO)c3ccc(Cl)c(F)c3)c(=O)c2)n1 (stereo unspecified) + COc1c(OCCCN2CCOCC2)ccc2c3n(c(=NC(=O)c4cnc(N)nc4)nc12)CCN3
Resp: 1 (yes)

Req: Test call for this compound, please: CC1(C)CCC(Nc2ncc(C(F)(F)F)c(-c3c[nH]c4c(P(C)(C)=O)c(C#N)ccc34)n2)CN1 (stereo unspecified) + Cc1nc(NC(=O)N2CCCC2C(N)=O)sc1-c1ccnc(C(C)(C)C(F)(F)F)c1
Resp: 0 (no)

Req: Test call for this compound, please: CNC(=O)c1ccc(N2C(=S)N(c3ccc(C#N)c(C(F)(F)F)c3)C(=O)C2(C)C)cc1F + CC(Nc1ccc2c(c1)OCCn1cc(N3C(=O)OCC3C(F)F)nc1-2)C(N)=O
Resp: 0 (no)
